- Test system: IFN-β secretion in THP1 cells
- method_notes: IFN-β secretion in THP1 cell culture (5 h)
- Assay type: cell-based
- condition_notes: Homo sapiens, THP-1, 5 h, 30 μM compound, cGAMP at 30 μM set at 100%, read-out: % Effect at 30 μM relative to 2′3′-cGAMP
reported_metric: activation at 30 µM (%)
Reply numerically in %, unit not repeated.

// molecule `COc1cc2nc(C(=O)CCC(=O)O)sc2cc1OC` , assay IFN-β secretion in THP1 cells, activation at 30 µM value: 56

Lab entry: IFN-β secretion in THP1 cells assay, molecule `COc1cc2cc(C(=O)CCC(=O)O)sc2nc1OC` , activation at 30 µM = 146

Bench note, IFN-β secretion in THP1 cells: COc1cc2sc(C(=O)[C@H]3C[C@H]3C(=O)O)cc2nc1OC (single isomer, unassigned) , activation at 30 µM reads 100

Record `COc1cc2sc(C(=O)C[C@H](C)C(=O)O)nc2cc1Br` ; system IFN-β secretion in THP1 cells; activation at 30 µM = 11

Short answer on IFN-β secretion in THP1 cells for `COc1cc2sc(C(=O)C[C@H](C)C(=O)O)cc2nc1Cl` , activation at 30 µM: 70

The molecule CCC(CC(=O)c1cc2nc(OC)c(OC)nc2s1)C(=O)O (single isomer, unassigned) , when measured on IFN-β secretion in THP1 cells, yielded activation at 30 µM of 116

IFN-β secretion in THP1 cells assay, molecule COc1cc2nc(C(=O)CC(C)C(=O)O)sc2cc1OC (single isomer, unassigned) , recorded activation at 30 µM = 94

Entry `COc1cc2sc(C(=O)CCC(=O)O)cc2nc1OC` , tested on IFN-β secretion in THP1 cells, has a reported activation at 30 µM of 107

Considering COc1cc2sc(C(=O)CC(C)C(=O)O)cc2nc1OC (single isomer, unassigned) , its activation at 30 µM with IFN-β secretion in THP1 cells was recorded as 55

Bench note, IFN-β secretion in THP1 cells: entry `COc1cc2sc(C(=O)C[C@H](C)C(=O)O)nc2nc1OC` , its activation at 30 µM = 14

Summary line: COc1cc2sc(C(=O)CC(C)C(=O)O)nc2c(F)c1OC (centres unmarked) , IFN-β secretion in THP1 cells, reported activation at 30 µM = 19

The measured activation at 30 µM that `COc1nc2cc(C(=O)CCC(=O)O)sc2cc1Br` showed for IFN-β secretion in THP1 cells is 142

Query `COc1nc2cc(C(=O)CCC(=O)O)sc2nc1OC` on IFN-β secretion in THP1 cells; activation at 30 µM returned: 108

The molecule COc1nc2cc(C(=O)CC(C)C(=O)O)sc2nc1OC (single isomer, unassigned) , when measured on IFN-β secretion in THP1 cells, yielded activation at 30 µM of 77
